System: Erysiphe graminis
Assay: Test on protective effect against Erysiphe graminis (wheat)
Type: in vivo
Settings: Blumeria graminis, 168 h; 500 ppm active ingredient sprayed on wheat (Norin No. 61) at 1.5 to 2-leaf stage before inoculation; 7 days after; read-out: control level
quantity measured: pest or weed control at 500 ppm (%)

- compound: "CCC(C)c1c(C)nc(-n2cccn2)nc1N1CCC(C)CC1 (stereo not drawn)"
  assay target: "Erysiphe graminis"
  quantity measured: "pest or weed control at 500 ppm"
  reported value: 100
- compound: "CCC(C)c1c(SC)nc(-n2cccn2)nc1N1CCC(C)CC1 (stereo not drawn)"
  assay target: "Erysiphe graminis"
  quantity measured: "pest or weed control at 500 ppm"
  reported value: 100
- compound: "CCC(C)c1c(C#N)nc(-n2cccn2)nc1N1CCC(C)CC1 (stereo not drawn)"
  assay target: "Erysiphe graminis"
  quantity measured: "pest or weed control at 500 ppm"
  reported value: 100
- compound: "CCc1nc(-n2cccn2)nc(NCC(F)(F)F)c1C(C)CC (stereo not drawn)"
  assay target: "Erysiphe graminis"
  quantity measured: "pest or weed control at 500 ppm"
  reported value: 100
- compound: "CCC(C)c1c(NCC(F)(F)F)nc(-n2cccn2)nc1SC (stereo not drawn)"
  assay target: "Erysiphe graminis"
  quantity measured: "pest or weed control at 500 ppm"
  reported value: 100
- compound: "CCC(C)c1c(F)nc(-n2cccn2)nc1NCC(F)(F)F (stereo not drawn)"
  assay target: "Erysiphe graminis"
  quantity measured: "pest or weed control at 500 ppm"
  reported value: 100
